Measured values drawn from PubChem BioAssay AID1159580 for this set.

ASSAY_TEXT: chemical genetic growth profiling, strain panel (AID 1159580);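 further: tested at 20 µM; growth read once vehicle control cultures reached saturation at 30 °C; 1 = growth at the plate median or of vehicle wells; lower values mean less growth of the strain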
MEASUREMENT_CONTEXT: S. cerevisiae deletion strains, growth OD, locus YMR307W, strain GAS1, stronger effect = lower value
About 2,000 (36%) of roughly 5,500 compounds were called active. About 18% were inconclusive and are not listed. The list shows a part of the results.
Kindly state normalized growth for each of the entries shown.
Answers are plain numbers.

{"columns": ["MOLECULE", "RESULT_NUMBER"],
 "data": [
  ["CC(=O)O[C@@H]1CC2C(C)(C)C(=O)CC[C@]2(C)C2CC[C@@]3(C)[C@H](c4ccoc4)OC(=O)C4OC43[C@@]21C (some centres undefined)", 0.937]
]}

Consider the following items and state reported normalized growth for each.
1. CCN1CCC[C@H]1CNC(=O)c1c(O)c(Cl)cc(Cl)c1OC
2. CC(=O)O[C@@H]1CC2C(C)(C)CCC(=O)[C@]2(C)C2CC[C@@]3(C)[C@H](c4ccoc4)OC(=O)C4OC43[C@@]21C (some centres undefined)
3. CC(=O)OC1CC2C(C)(C)CCCC2(C)C2CCC3(C)C(c4ccoc4)OC(=O)C4OC43C12C (centres undefined)

Resp:
1. 1
2. 1.07
3. 0.854

----------
ASSAY_TEXT: chemical genetic growth profiling, strain panel (AID 1159580)
MEASUREMENT_CONTEXT: S. cerevisiae deletion strains, growth OD, locus YJL187C, strain SWE1 (second series), stronger effect = lower value
Among all 5,500 compounds or so, about 2,000 (36%) were called active. Roughly 18% stayed inconclusive and do not appear here. The list shows a part of the results.
# label = condition met if normalized growth < 1 else condition not met

{"columns": ["MOLECULE", "CLASS_LABEL"],
 "data": [
  ["OC1C(O)C(O)C(O)C(O)C1O (centres undefined)", "condition met"]
]}

Req: Does the reported normalized growth of COc1cccc2c1cc([N+](=O)[O-])c1c(C(=O)O)cc3c(c12)OCO3 stay below 1?
Resp: condition not met

Req: Does the reported normalized growth of O=C1c2c(O)ccc(O)c2C(=O)c2c(NCCNCCO)ccc(NCCNCCO)c21 stay below 1?
Resp: condition met

----------
ASSAY_TEXT: chemical genetic growth profiling, strain panel (AID 1159580);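 further: tested at 20 µM; growth read once vehicle control cultures reached saturation at 30 °C; 1 = growth at the plate median or of vehicle wells; lower values mean less growth of the strain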
MEASUREMENT_CONTEXT: S. cerevisiae deletion strains, growth OD, locus YMR125W, strain sto1, stronger effect = lower value
Out of some 5,500 compounds screened, about 2,000 (36%) were called active. Roughly 18% stayed inconclusive and do not appear here. This is one part of the list.
Kindly state normalized growth for each of the entries shown.
Give bare numbers.

{"columns": ["COMPOUND", "QUANTITY_KIND", "RESULT_NUMBER"],
 "data": [
  ["CN(C)C(=O)Oc1cc(OC(=O)N(C)C)cc(C(O)CNC(C)(C)C)c1 (configuration not stated)", "normalized growth", 1.04],
  ["CC1(C)O[C@@H]2CC3C4C[C@H](F)C5=CC(=O)C=CC5(C)C4C(O)CC3(C)[C@]2(C(=O)CO)O1 (some centres not stated)", "normalized growth", 0.979],
  ["CC(=O)O[C@@H]1CC2C(C)(C)C(=O)CC[C@]2(C)C2CC[C@@]3(C)[C@H](c4ccoc4)OC(=O)C4OC43[C@@]21C (some centres not stated)", "normalized growth", 0.978],
  ["NCC(=O)CCC(=O)O", "normalized growth", 0.977],
  ["C[N+]1(CCCCC[N+]2(C)CCCC2)CCCC1", "normalized growth", 0.979],
  ["CCCCC1C(=O)N(c2ccccc2)N(c2ccccc2)C1=O", "normalized growth", 0.989]
]}

Consider the following items and state reported normalized growth for each.
1. CCCCCCCCCc1ccc(O)cc1
2. Cn1nnnc1SCC1=C(C(=O)O)N2C(=O)C(NC(=O)C(O)c3ccccc3)C2SC1 (configuration not stated)

Resp:
1. 0.0742
2. 0.973

Consider the following items and state reported normalized growth for each.
1. COc1cccc2c1cc([N+](=O)[O-])c1c(C(=O)O)cc3c(c12)OCO3
2. COc1ccc(C(=O)/C=C/c2ccccc2)cc1
3. CCCCCCc1ccc(O)cc1O
4. CCN1CCN(c2cc3c(cc2F)c(=O)c(C(=O)O)cn3C2CC2)CC1
5. Nc1nnc(-c2cccc(Cl)c2Cl)c(N)n1
6. CCCCCCCCCCCCCCCC[n+]1ccccc1
7. O=C1CN2Cc3c(ccc(Cl)c3Cl)N=C2N1

Resp:
1: 1.03; 2: 0.856; 3: 1.04; 4: 1.02; 5: 1.05; 6: 0.0655; 7: 0.92

Consider the following items and state reported normalized growth for each.
1. CC(=O)O[C@H]1C[C@@H](O)C(C)(C)C2C[C@@H](OC(C)=O)[C@]3(C)C(CC[C@@]4(C)[C@H](c5ccoc5)OC(=O)C5OC543)[C@]21C (some centres not stated)
2. NCCc1ccc(O)c(O)c1
3. NS(=O)(=O)c1cc2c(cc1C(F)(F)F)NCNS2(=O)=O
4. CC(=O)O[C@@H]1CC2C(C)(C)[C@H](O)C[C@H](O)[C@]2(C)C2CC[C@@]3(C)[C@H](c4ccoc4)OC(=O)[C@H]4O[C@]43[C@@]21C (some centres not stated)
5. CC(C)=CCc1c2c(c(O)c3c(=O)c(O)c(-c4ccccc4)oc13)C=CC(C)(C)O2
6. COc1ccc(-c2cc(=O)c3c(OC(C)=O)cc(OC(C)=O)cc3o2)cc1

Resp:
1. 1
2. 1.01
3. 0.982
4. 0.993
5. 0.872
6. 0.965

Req: // query normalized growth value for entry CC[N+]1(C)CCCC(OC(=O)C(O)(c2ccccc2)c2ccccc2)C1 (configuration not stated)
Resp: 1.02

----------
ASSAY_TEXT: chemical genetic growth profiling, strain panel (AID 1159580);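 further: tested at 20 µM; growth read once vehicle control cultures reached saturation at 30 °C; 1 = growth at the plate median or of vehicle wells; lower values mean less growth of the strain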
MEASUREMENT_CONTEXT: S. cerevisiae deletion strains, growth OD, locus YDR195W, strain ref2
Screen size: about 5,500 compounds; about 2,000 (36%) were called active. Another 18% or so got no clear call; they are omitted. Cut-off read from the data, not from the text of the source: active = normalized growth mostly below about 0.91 (no sharp cut-off); inconclusive = no clear call, values can overlap the other calls; inactive = mostly above about 0.92. This is one part of the list.
Output constraint: value belongs to active, inactive

Consider the worked cases shown below.
{"columns": ["COMPOUND", "CLASS_LABEL"],
 "data": [
  ["CC(=O)Nc1cccc(O)c1", "inactive"],
  ["NC(=O)CC[C@@H](N)C(=O)O", "inactive"],
  ["CCC(/C=C/[C@@H](C)[C@H]1CCC2C3CC=C4C[C@@H](O)CC[C@]4(C)C3CC[C@@]21C)C(C)C (some centres not stated)", "inactive"]
]}

Req: Write down the call the test reported for this compound. Item: CCCN1C[C@H](CSC)C[C@@H]2c3cccc4[nH]cc(c34)C[C@H]21
Resp: inactive

Req: Write down the call the test reported for this compound. Item: Nc1ccc(C(=O)O)c(O)c1
Resp: inactive

Req: Write down the call the test reported for this compound. Item: CC(C)c1ccc2c(c1O)CC[C@H]1C3=C(CC[C@]21C)C(=O)OC3
Resp: inactive

Req: Write down the call the test reported for this compound. Item: CC(C)Oc1ccc2c(=O)cc(-c3ccccc3)oc2c1
Resp: inactive

Req: Write down the call the test reported for this compound. Item: COc1cc([C@@H]2c3cc4c(cc3[C@H](O)[C@H]3COC(=O)[C@@H]23)OCO4)cc(OC)c1OC
Resp: inactive

----------
ASSAY_TEXT: chemical genetic growth profiling, strain panel (AID 1159580);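 further: tested at 20 µM; growth read once vehicle control cultures reached saturation at 30 °C; 1 = growth at the plate median or of vehicle wells; lower values mean less growth of the strain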
MEASUREMENT_CONTEXT: S. cerevisiae deletion strains, growth OD, locus YMR263W, strain SAP30, stronger effect = lower value
The whole screen tested about 5,500 compounds, of which about 2,000 (36%) were called active. Inconclusive results (about 18%) are left out. This is one part of the list.
QUANTITY_KIND: normalized growth
One number for each entry.

{"columns": ["MOLECULE", "QUANTITY_KIND", "RESULT_NUMBER"],
 "data": [
  ["CC(C)(Oc1ccc(Cl)cc1)C(=O)O", "normalized growth", 0.985],
  ["COc1cc2c(cc1OC)-c1cc3ccc(OC)c(OC)c3c[n+]1CC2", "normalized growth", 0.998],
  ["O=C(O)c1nc2cc(Cl)c(Cl)cc2[nH]c1=O", "normalized growth", 1.02],
  ["NCCCCNS(=O)(=O)c1cccc2c(Cl)cccc12", "normalized growth", 1.01],
  ["NCCc1cccc(O)c1", "normalized growth", 1],
  ["COc1ccc(-c2coc3cc(OC)cc(O)c3c2=O)cc1", "normalized growth", 0.967]
]}

Consider the following items and state reported normalized growth for each.
1. CCOC(=O)c1ccc2oc3ccc(O)cc3c(=O)c2c1
2. COC(=O)C1=C(C)NC(C)=C(C(=O)OC)C1c1ccccc1[N+](=O)[O-]
3. CC(C)Oc1ccc2c(=O)cc(-c3ccccc3)oc2c1
4. CCCCC1C(=O)N(c2ccccc2)N(c2ccccc2)C1=O
5. Cc1ccc(OCC(=O)NN)c2c1CCC2
6. CN1CCOC(c2ccccc2)c2ccccc2C1 (stereo not drawn)

Resp:
1: 0.949; 2: 1; 3: 0.893; 4: 0.997; 5: 1.01; 6: 1.02

Consider the following items and state reported normalized growth for each.
1. O=C(NNC(=O)c1ccccc1[N+](=O)[O-])c1ccc(Cl)cc1
2. CNCCC=C1c2ccccc2CCc2ccccc21
3. CC(C)c1ccc2c(c1O)CC[C@H]1C3=C(CC[C@]21C)C(=O)OC3
4. Cn1nnnc1SCC1=C(C(=O)O)N2C(=O)C(NC(=O)C(O)c3ccccc3)C2SC1 (stereo not drawn)
5. O=C(N/N=C\c1ccccc1Cl)c1cccnc1
6. O=c1[nH]c(=O)n([C@H]2C[C@H](O)[C@@H](CO)O2)cc1/C=C/Br
7. CC(=O)Oc1cc(OC(C)=O)c2c(=O)c(-c3ccccc3)coc2c1

Resp:
1: 0.91; 2: 1.01; 3: 0.896; 4: 1.03; 5: 0.945; 6: 0.998; 7: 1

Consider the following items and state reported normalized growth for each.
1. C=CCCCCCCCCCCCC(O)CC(O)CO (stereo not drawn)
2. Cc1cc(C(F)(F)F)c(C#N)c(=O)[nH]1
3. CN1CNc2c(c(=O)n(C)c(=O)n2C)C1
4. COC(=O)C1=C(Nc2ccc(Cl)cc2)CSC1
5. CSC(=NCc1cccnc1)NC#N
6. COC(=O)C1=C(C)NC(C)=C(C(=O)OCCN(C)Cc2ccccc2)C1c1cccc([N+](=O)[O-])c1 (stereo not drawn)
7. CCN1CCC[C@H]1CNC(=O)c1c(O)c(Cl)cc(Cl)c1OC

Resp:
[0.955, 0.963, 1, 0.953, 0.992, 0.988, 1.01]

Consider the following items and state reported normalized growth for each.
1. CC1=NCCc2c1[nH]c1cc(O)ccc21
2. Cc1cc(Br)c(OCC(=O)NN)c2c1CCC2
3. O=c1c(-c2ccccc2)coc2cc(O)cc(O)c12
4. O=C1CCCc2c1nc(-c1ccccc1)n2O
5. O=c1[nH]c2cc(Cl)c(Cl)cc2[nH]c1=O
6. CCCCCCCCCCc1ccc(-c2ccccc2)cc1
7. CC(C)[C@]12O[C@H]1[C@@H]1O[C@@]13[C@@]1(C)CCC4=C(COC4=O)[C@@H]1C[C@@H]1O[C@@]13C2=O

Resp:
1. 0.99
2. 0.961
3. 0.774
4. 0.999
5. 1
6. 0.999
7. 1.03

Consider the following items and state reported normalized growth for each.
1. COC(=O)c1ccc(Cl)cc1N(Cc1ccccc1)S(C)(=O)=O
2. CC(=O)C1COc2ccc(C)cc2C1=O (stereo not drawn)

Resp:
[0.929, 0.96]

Consider the following items and state reported normalized growth for each.
1. COc1cc2cc[n+]3cc4c(OC)c(OC)ccc4cc3c2cc1OC
2. CN(C)CC/C=C1\c2ccccc2COc2ccccc21

Resp:
[0.988, 0.991]

Consider the following items and state reported normalized growth for each.
1. COc1cc([C@@H]2c3cc4c(cc3C(O[C@@H]3O[C@@H]5CO[C@@H](c6cccs6)OC5[C@H](O)[C@H]3O)C3COC(=O)[C@@H]32)OCO4)cc(OC)c1O (stereo partly drawn)
2. CC1(C)CC(=O)c2c(S(C)(=O)=O)sc(Br)c2C1
3. FC(F)(F)c1ccc(-c2nc(-c3ccc4c(c3)OCCCO4)cs2)cc1

Resp:
1: 1; 2: 0.983; 3: 0.988

Consider the following items and state reported normalized growth for each.
1. O=c1c2ccccc2oc2ccc(O)cc12
2. O=C(N/N=C\c1ccccc1Cl)N/N=C\c1ccccc1Cl
3. COc1ccc(-c2coc3cc(O)cc(O)c3c2=O)cc1
4. N#CC1COc2ccccc2O1 (stereo not drawn)
5. CN(C)CCC=C1c2ccccc2C=Cc2ccccc21

Resp:
1: 0.833; 2: 0.909; 3: 0.424; 4: 1.03; 5: 1
